Tested on: plants grown from seed (5 seeds per plot)
assayOverview: Plant feeding with ribose for growth (Table 1)
Format: in vivo, Hosta (H. plantaginea grandiflora)
conditionDetails: 23 June; 5 seeds per plot
metric: Plant measures, Mean (inches)
Kindly provide the numeric value in inches only, without the unit symbol.

Sample answers from the record:
>  <compound>
O=C[C@H](O)[C@H](O)[C@H](O)CO [R4, ribose]

>  <testedTarget>
plants grown from seed (5 seeds per plot)

>  <Plant measures, Mean [inches]>
8.45

$$$$
>  <compound>
O=C[C@H](O)[C@H](O)[C@H](O)CO [R2, ribose]

>  <testedTarget>
plants grown from seed (5 seeds per plot)

>  <Plant measures, Mean [inches]>
3.3

$$$$

Plant measures, Mean reported for this compound O=C[C@H](O)[C@H](O)[C@H](O)CO [R1, ribose] : 1.65

Plant measures, Mean reported for this compound O=C[C@H](O)[C@H](O)[C@H](O)CO [R3, ribose] : 6.05

----------
System: plants grown from seed (5 seeds per plot)
assayOverview: Plant feeding with ribose for growth (Table 1)
Format: in vivo, Hosta (H. plantaginea grandiflora)
conditionDetails: Measured 8 July
metric: #Plants/blossom
Reply with the value as a number alone.

>  <compound>
O=C[C@H](O)[C@H](O)[C@H](O)CO [R1, ribose]

>  <#Plants/blossom>
1

$$$$
>  <compound>
O=C[C@H](O)[C@H](O)[C@H](O)CO [R2, ribose]

>  <#Plants/blossom>
3

$$$$

#Plants/blossom reported for this compound O=C[C@H](O)[C@H](O)[C@H](O)CO [R4, ribose] : 5

#Plants/blossom reported for this compound O=C[C@H](O)[C@H](O)[C@H](O)CO [R3, ribose] : 4
